Target: T1, cynomolgus CD30L expressed on HEK293 cells (cynomolgus, UniProt A0A7N9CVX7 1-234)
T1 sequence: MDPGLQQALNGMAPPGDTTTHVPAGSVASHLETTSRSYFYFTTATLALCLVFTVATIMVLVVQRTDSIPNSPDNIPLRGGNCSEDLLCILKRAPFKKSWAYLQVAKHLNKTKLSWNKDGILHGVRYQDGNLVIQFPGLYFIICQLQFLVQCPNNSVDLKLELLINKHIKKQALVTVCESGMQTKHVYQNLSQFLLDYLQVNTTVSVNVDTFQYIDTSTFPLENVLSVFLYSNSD
Test: cell-based or functional assay
Reported property: Inhibition of IL-8 release in a dual cell assay (HEK293-cyCD30L cells + K299 cells) IC50 (nM)
Write the number in nM without appending the unit.

Consider the following illustrative entries.
{"Binder": "anti-CD30L Reference 1 antibody (antibody, human IgG1, lambda, V domains shown) VH: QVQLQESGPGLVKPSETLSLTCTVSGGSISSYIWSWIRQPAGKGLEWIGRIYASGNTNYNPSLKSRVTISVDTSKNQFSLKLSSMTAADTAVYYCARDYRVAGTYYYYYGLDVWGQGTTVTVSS VL: QSALTQPASVSGSPGQSITISCTGTSSDVGVYDYVSWYQQHPGKAPKLMIYEVSNRPSGVSNRFSGSKSGNTASLTISGLQTEDEADYYCSSYTSRSTWVFGGGTKLTVLG", "Recorded measurement": 0.79}
{"Binder": "anti-CD30L antibody clone 2 germlined (antibody, V domains shown, also called germlined clone 2) VH: EVQLVESGGGLVQPGRSLRLSCAASGFNFDDYAMHWVRQAPGKGLEWVSGISWRSGNIGYADSVKGRFTISRDNAKNSLYLQMNSLRAEDTALYYCAKDKGIGFNWNYEGFDYWGQGTLVTVSS VL: DIQMTQSPSSLSASVGDRVTITCRASQGISNHLAWFQQKPGKAPKSLIYAASSLQSGVPSRFSGSGSGTDFTLTISSLQPEDFATYYCQQYVTYPLTFGGGTKVEIK", "Recorded measurement": 0.41}
{"Binder": "anti-CD30L antibody clone 2 (antibody, V domains shown, also called clone 2 parental) VH: EVQLVESGGGLVQPGRSLRLSCAASGFNFDDYAMHWVRQAPGKGLEWVSGISWRSGNIGYAGSVKGRFTISRDNAKNSLYLQMNSLRPEDSALYYCAKDKGIGFNWNYEGFDYWGQGTLVTVSS VL: DIQMTQSPSSLSASVGDRVTITCRASQGISNHLAWFQQKPGKAPKSLIYAASSLQSGVPSKFSGSGSGTDFTLTISSLQPEDFATYYCQQYVTYPLTFGGGTKVEIK", "Recorded measurement": 0.31}

Problem: # lookup: Inhibition of IL-8 release in a dual cell assay (HEK293-cyCD30L cells + K299 cells) IC50 of anti-CD30L antibody clone 1 (antibody, V domains shown, also called clone 1 parental) VH: QVQLQESGPGLVKPSETLSLTCTVSGGSISGYYWSWIRQPPVKGLEWIGYIFYSGYTKYNPSLKSRVTISVDTSKNQFSLKLSSVTAADTAVYYCARDRWDFDYWGQGALVTVSS VL: AIQMTQSPSYLSASVGDRVTIACRASQGIRNNLGWYQQKPGKAPKLLIYAESSLQSGVPSRFSGSGSGTDFTLTISSLQPEDFATYYCLQDFNYPYTFGQGTKLEIK
Solution: 0.39
